target: BRM (Homo sapiens); assay: ATPase catalytic activity of BRM (ADP-Glo in vitro biochemical assay); conditions: Table 6
Sequence (P51531 whole entry): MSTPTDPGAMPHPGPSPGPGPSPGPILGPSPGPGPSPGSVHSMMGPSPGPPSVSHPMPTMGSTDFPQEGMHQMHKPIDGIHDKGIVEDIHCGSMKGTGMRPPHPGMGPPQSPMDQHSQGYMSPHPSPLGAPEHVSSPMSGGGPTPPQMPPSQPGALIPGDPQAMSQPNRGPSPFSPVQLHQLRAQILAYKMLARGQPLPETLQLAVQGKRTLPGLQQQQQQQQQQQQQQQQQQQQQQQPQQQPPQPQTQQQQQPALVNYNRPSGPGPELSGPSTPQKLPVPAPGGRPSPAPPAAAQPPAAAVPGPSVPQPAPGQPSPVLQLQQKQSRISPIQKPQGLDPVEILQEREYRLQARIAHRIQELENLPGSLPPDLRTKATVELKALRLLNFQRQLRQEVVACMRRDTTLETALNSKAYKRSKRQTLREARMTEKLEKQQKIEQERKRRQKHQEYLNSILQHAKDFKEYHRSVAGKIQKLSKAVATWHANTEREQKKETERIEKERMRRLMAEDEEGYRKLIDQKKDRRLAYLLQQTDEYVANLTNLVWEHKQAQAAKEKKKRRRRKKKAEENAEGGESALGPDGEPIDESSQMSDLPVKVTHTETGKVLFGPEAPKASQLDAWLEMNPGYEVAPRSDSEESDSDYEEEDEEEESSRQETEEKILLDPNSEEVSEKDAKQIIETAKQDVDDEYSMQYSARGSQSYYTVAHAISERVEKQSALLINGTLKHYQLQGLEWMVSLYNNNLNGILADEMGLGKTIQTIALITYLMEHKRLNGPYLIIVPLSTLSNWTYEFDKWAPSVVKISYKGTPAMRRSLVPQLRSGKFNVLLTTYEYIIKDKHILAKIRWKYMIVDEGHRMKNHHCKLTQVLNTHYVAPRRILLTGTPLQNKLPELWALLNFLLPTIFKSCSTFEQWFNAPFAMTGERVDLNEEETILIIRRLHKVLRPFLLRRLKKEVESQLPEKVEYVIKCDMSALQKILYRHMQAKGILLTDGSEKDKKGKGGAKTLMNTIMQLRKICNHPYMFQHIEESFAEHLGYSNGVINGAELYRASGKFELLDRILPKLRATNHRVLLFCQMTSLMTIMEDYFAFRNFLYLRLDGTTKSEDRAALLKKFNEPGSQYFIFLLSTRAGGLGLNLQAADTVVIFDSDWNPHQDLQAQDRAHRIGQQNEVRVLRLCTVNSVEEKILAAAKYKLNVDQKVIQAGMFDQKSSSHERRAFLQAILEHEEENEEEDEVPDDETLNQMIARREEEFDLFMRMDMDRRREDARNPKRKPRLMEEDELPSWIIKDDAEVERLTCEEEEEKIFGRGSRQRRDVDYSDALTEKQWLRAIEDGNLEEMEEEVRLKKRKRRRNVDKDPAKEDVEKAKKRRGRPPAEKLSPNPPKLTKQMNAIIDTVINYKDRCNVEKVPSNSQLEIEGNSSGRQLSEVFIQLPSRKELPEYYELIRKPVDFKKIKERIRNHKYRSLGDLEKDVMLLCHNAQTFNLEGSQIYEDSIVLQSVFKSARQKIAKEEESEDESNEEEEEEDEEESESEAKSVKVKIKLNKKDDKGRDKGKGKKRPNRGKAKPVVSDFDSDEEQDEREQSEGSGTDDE
VALUE_TYPE: BRM Max % Inhibition

COMPOUND | BRM Max % Inhibition
CC(C)c1cc(-c2cccc(-c3csc(NC(=O)CNC(=O)c4ccc(N)cc4)n3)c2)ccn1 [Compound 207] | >95%

Quick note, BRM Max % Inhibition for Nc1ccc(C(=O)NCC(=O)Nc2nc(-c3cccc(-c4ccnc(N)c4)c3)cs2)cc1 [Compound 133] landed at >95%

Quick note, BRM Max % Inhibition for CNC(=O)C(C)(C)c1cc(-c2cccc(-c3csc(NC(=O)CNC(=O)c4ccc(N)cc4)n3)c2)ccn1 [Compound 226] landed at >95%

Quick note, BRM Max % Inhibition for CNC(=O)c1ccc(-c2cccc(-c3csc(NC(=O)CNC(=O)c4ccc(N)cc4)n3)c2)cc1 [Compound 130] landed at >70%

Quick note, BRM Max % Inhibition for COC(C)(C)Cn1ccc(-c2cccc(-c3csc(NC(=O)CNC(=O)c4ccc(N)cc4)n3)c2)n1 [Compound 232] landed at >80%

Quick note, BRM Max % Inhibition for Nc1ccc(C(=O)NCC(=O)Nc2nc(-c3cccc(-c4ccn(CC(=O)O)n4)c3)cs2)cc1 [Compound 210] landed at >95%

Quick note, BRM Max % Inhibition for CNCc1cc(-c2cccc(-c3csc(NC(=O)CNC(=O)c4ccc(N)cc4)n3)c2)ccn1 [Compound 196] landed at >95%
